# study_target: HIV-1 protease (Human immunodeficiency virus type 1 group M subtype B)
# protocol_summary: biochemical
# particulars: read-out: HIV-1 FITC KI
Measured Ki values are reported for all entries that follow.

{"molecule": "O=c1oc2c(c(O)c1C(c1cccc(NS(=O)(=O)c3cc(Cl)sc3Cl)c1)C1CC1)CCCCCC2 (stereo not shown) [Example 304]", "Ki [nM]": 27.9}
{"molecule": "O=c1oc2c(c(O)c1C(c1cccc(NS(=O)(=O)c3ccc(NO)cc3)c1)C1CC1)CCCCCC2 (stereo not shown) [Example 348 (Second Title Compound)]", "Ki [nM]": 1.7}
{"molecule": "O=C(Nc1cccc(S(=O)(=O)Nc2cccc(C(c3c(O)c4c(oc3=O)CCCCCC4)C3CC3)c2)c1)c1ccccc1 (stereo not shown) [Example 351]", "Ki [nM]": 16.4}
{"molecule": "O=c1oc2c(c(O)c1C(c1cccc(NS(=O)(=O)c3cccc(S(=O)(=O)N(Cc4ccccc4)Cc4ccccc4)c3)c1)C1CC1)CCCCCC2 (stereo not shown) [Example 413]", "Ki [nM]": 104}
{"molecule": "CCCC(c1cccc(NS(=O)(=O)c2cccnc2)c1)c1c(O)c2c(oc1=O)CCCCCC2 (stereo not shown) [Example 433]", "Ki [nM]": 2.24}
{"molecule": "O=c1oc2c(c(O)c1C(c1cccc(NS(=O)(=O)c3ccc(-c4ccccn4)s3)c1)C1CC1)CCCCCC2 (stereo not shown) [Example 310]", "Ki [nM]": 2.37}
{"molecule": "COCCC1CCCCCc2c1oc(=O)c(C(c1ccccc1)C1CC1)c2O (stereo not shown) [Example 178]", "Ki [nM]": 27}

----------
# study_target: HIV-1 protease (Human immunodeficiency virus type 1 group M subtype B)
# protocol_summary: biochemical
# particulars: HIV-1 Protease IC50
experimental_endpoint: IC50 (µM)

{"compound": "CCC(c1cccc(NC(=O)CCNC(=O)OC(C)(C)C)c1)c1c(O)c2ccc(OC)cc2oc1=O (stereo not drawn)", "study_target": "HIV-1 protease (Human immunodeficiency virus type 1 group M subtype B)", "units_label": "µM", "endpoint_value": 1.2}
{"compound": "CCC(c1cccc(NC(=O)C(C)NC(=O)OC(C)(C)C)c1)c1c(O)c2ccccc2oc1=O (stereo not drawn)", "study_target": "HIV-1 protease (Human immunodeficiency virus type 1 group M subtype B)", "units_label": "µM", "endpoint_value": 1.1}
{"compound": "O=c1oc2ccccc2c(O)c1C(c1ccccc1)c1ccccc1 [Example 7, 4-Hydroxy-3-diphenylmethylcoumarin]", "study_target": "HIV-1 protease (Human immunodeficiency virus type 1 group M subtype B)", "units_label": "µM", "endpoint_value": 21.2}
{"compound": "CCC(c1cccc(NC(=O)CCc2ccccc2)c1)c1c(O)c2ccc(OC)cc2oc1=O (stereo not drawn)", "study_target": "HIV-1 protease (Human immunodeficiency virus type 1 group M subtype B)", "units_label": "µM", "endpoint_value": 2.8}
{"compound": "COc1ccc2c(O)c(C(C3CC3)C3CC3)c(=O)oc2c1", "study_target": "HIV-1 protease (Human immunodeficiency virus type 1 group M subtype B)", "units_label": "µM", "endpoint_value": 8.5}
{"compound": "CCC(c1cccc(NC(=O)CCCNC(=O)OC(C)(C)C)c1)c1c(O)c2ccccc2oc1=O (stereo not drawn)", "study_target": "HIV-1 protease (Human immunodeficiency virus type 1 group M subtype B)", "units_label": "µM", "endpoint_value": 2.3}
{"compound": "CCOc1ccc2c(O)c(C(CC)c3ccccc3)c(=O)oc2c1 (stereo not drawn)", "study_target": "HIV-1 protease (Human immunodeficiency virus type 1 group M subtype B)", "units_label": "µM", "endpoint_value": 0.9}
{"compound": "CC(O)CC(c1ccccc1)c1c(O)c2ccccc2oc1=O (stereo not drawn)", "study_target": "HIV-1 protease (Human immunodeficiency virus type 1 group M subtype B)", "units_label": "µM", "endpoint_value": 41.7}
{"compound": "COc1ccc2c(O)c(C(c3ccccc3)C3CC3)c(=O)oc2c1 (stereo not drawn)", "study_target": "HIV-1 protease (Human immunodeficiency virus type 1 group M subtype B)", "units_label": "µM", "endpoint_value": 2.8}

----------
# study_target: HIV-1 protease (Human immunodeficiency virus type 1 group M subtype B)
# protocol_summary: biochemical
# particulars: read-out: HIV-1 Protease IC50
experimental_endpoint: IC50 (µM)

{"molecule": "CCC(c1cccc(NC(=O)CCc2c[nH]c3ccccc23)c1)c1c(O)c2ccccc2oc1=O (stereo not shown)", "experimental_endpoint": "IC50", "units_label": "µM", "endpoint_value": 13.1}

----------
# study_target: HIV-1 protease (Human immunodeficiency virus type 1 group M subtype B, UniProt P04585)
# protocol_summary: biochemical
# particulars: dose 3.300 uM; read-out: HIV-1 Protease % Inhib
Mark no (0) for inhibition at 3.3 µM values under 40%, and yes (1) for everything at or above.

{"compound": "Cn1cnc(S(=O)(=O)Nc2ccc(C(c3c(O)c4c(oc3=O)CCCCCC4)C3CC3)cc2)c1 (stereo not shown) [Example 476]", "label_class": "yes (1)"}
{"compound": "C=CS(=O)(=O)Nc1cccc(C(c2c(O)c3c(oc2=O)CCCCC3)C2CC2)c1 (stereo not shown) [Example 363]", "label_class": "yes (1)"}
{"compound": "O=c1oc2c(c(O)c1C(c1ccc(NS(=O)(=O)c3cccc([N+](=O)[O-])c3)cc1)C1CC1)CCCCCC2 (stereo not shown) [Example 475]", "label_class": "yes (1)"}
{"compound": "CCCC(c1cccc(NC(=O)OCc2ccccc2)c1)c1c(O)c2c(oc1=O)CCCCCC2 (stereo not shown) [Example 375]", "label_class": "yes (1)"}
{"compound": "O=c1oc2c(c(O)c1C(c1cccc(NCCc3ccccc3)c1)C1CC1)CCCCCC2 (stereo not shown) [Example 243]", "label_class": "no (0)"}
{"compound": "O=c1oc2c(c(O)c1C(c1cccc(NCc3ccccc3)c1)C1CC1)CCCCCC2 (stereo not shown) [Example 242]", "label_class": "no (0)"}
{"compound": "O=c1oc2c(c(O)c1C(c1ccccc1)C1CC1)CCCCC2CCC1OCCO1 (stereo not shown) [Example 186]", "label_class": "yes (1)"}
{"compound": "CCC(c1cccc(NC(=O)OCc2ccccc2)c1)c1c(O)c2c(oc1=O)CCCCCC2 (stereo not shown) [Example 217]", "label_class": "no (0)"}
{"compound": "Nc1cc(N)cc(C(c2c(O)c3c(oc2=O)CCCCCC3)C2CC2)c1 (stereo not shown) [Example 484]", "label_class": "no (0)"}
{"compound": "O=c1oc2c(c(O)c1C(c1cccc(NC(=S)Cc3ccccc3)c1)C1CC1)CCCCCC2 (stereo not shown) [Example 368]", "label_class": "yes (1)"}
{"compound": "CCCCOc1ccc(S(=O)(=O)Nc2cccc(C(c3c(O)c4c(oc3=O)CCCCCC4)C3CC3)c2)cc1 (stereo not shown) [Example 282]", "label_class": "yes (1)"}
{"compound": "N#Cc1ccc(S(=O)(=O)NCc2ccc(C(c3c(O)c4c(oc3=O)CCCCCC4)C3CC3)s2)cc1 (stereo not shown) [Example 392]", "label_class": "yes (1)"}
{"compound": "O=c1oc2c(c(O)c1C(c1cccc(NS(=O)(=O)CCCN3CCOCC3)c1)C1CC1)CCCCCC2 (stereo not shown) [Example 365B (Second Title Compound)]", "label_class": "yes (1)"}
{"compound": "COCOCc1ccc(C(c2c(O)c3c(oc2=O)CCCCCC3)C2CC2)o1 (stereo not shown) [Example 386]", "label_class": "no (0)"}
{"compound": "Nc1ccc(C(c2c(O)c3c(oc2=O)CCCCCC3)C2CC2)cc1 (stereo not shown) [Example 471]", "label_class": "yes (1)"}
{"compound": "CC(C)(O)C1CCCCCc2c1oc(=O)c(C(c1ccccc1)C1CC1)c2O (stereo not shown) [Example 175]", "label_class": "yes (1)"}

----------
Measured inhibition at 10 µM values are reported for all entries that follow.
# study_target: UniProt:P04585
# protocol_summary: biochemical
# particulars: read-out: HIV-1 Protease % Inhib, dose 10.000 uM
experimental_endpoint: inhibition at 10 µM (%)

{"molecule": "CC(CO)C1CCCCCc2c1oc(=O)c(C(c1ccccc1)C1CC1)c2O (centres unmarked)", "units_label": "%", "limit_sign": "=", "endpoint_value": 106}
{"molecule": "O=C(COCc1ccccc1)Nc1cccc(S(=O)(=O)Nc2cccc(C(c3c(O)c4c(oc3=O)CCCCCC4)C3CC3)c2)c1 (centres unmarked)", "units_label": "%", "limit_sign": "=", "endpoint_value": 91.7}
{"molecule": "O=c1oc2c(c(O)c1C(c1cccc(NS(=O)(=O)c3cccc4cccnc34)c1)C1CC1)CCCCCC2 (centres unmarked)", "units_label": "%", "limit_sign": "=", "endpoint_value": 108}
{"molecule": "COC(=O)C(C(=O)OC)C(c1ccccc1)c1c(O)c2ccccc2oc1=O (centres unmarked)", "units_label": "%", "limit_sign": "<", "endpoint_value": 10}
{"molecule": "CCC(c1cccc(NC(=O)CCc2ccccc2)c1)c1c(O)c2ccccc2oc1=O (centres unmarked)", "units_label": "%", "limit_sign": "=", "endpoint_value": 78.6}
{"molecule": "O=c1oc2c(c(O)c1C(c1ccccc1)C1CC1)CCCCC2C(O)C1CC1 (centres unmarked)", "units_label": "%", "limit_sign": "=", "endpoint_value": 108}
{"molecule": "CCC(c1ccccc1)c1c(O)c2ccc(O)cc2oc1=O (centres unmarked)", "units_label": "%", "limit_sign": "=", "endpoint_value": 79.4}
{"molecule": "C=CS(=O)(=O)Nc1cccc(C(CC)c2c(O)c3ccccc3oc2=O)c1 (centres unmarked)", "units_label": "%", "limit_sign": "=", "endpoint_value": 62.9}
